assayOverview: yeast display, Sf9 membrane polyspecificity reagent, FACS + sequencing; frameworks hold sequencing errors
measuredParameter: polyreactivity (PSR sort gate)

QVQLVESGGGLVQAGGSLRLSCAASGSIFDGYGMGWYRQAAGKERELVAGITSGGSTYYADSVKGRFTFSRDNAKNTVYLQMNSLIPEDTAVYYCATVVRYSNARGDYWGQGTQVTVSS; low polyreactivity
QVHLVESRGGLVQAGGSLRLSCAASGRPFNPYAMGWYRQAPGKEREFVYADSVKGRFTISRDNAKNTVYLQMNSLKPEDTAVYYCAADVYPDTLHPYNYDYWGQGTQVTVSS; low polyreactivity
QVQLVESGGGLVQAGGSLRLSCAASGRTFDRYAMGWYRQAPGKERELVAAITWSGGRTYYADSVKGRFTISRDNAKNTVYLQMNSLKPEDTAVYYCAADNSYRGYHSPYDYWGQGTQVTVSS; low polyreactivity
